biological target: FLK-1 receptor (Mus musculus); construct: expressed in transfected cells; host or cells: NIH3T3 C7#3; assay: FLK-1 ELISA (kinase activity of the FLK-1 receptor in FLK-1/NIH3T3 cells, VEGF stimulated); type: cell-based
quantity: Fik Kinase %Inhibition (%)
Give bare numbers, in %.

Examples with their reported Fik Kinase %Inhibition follow.
[[record]]
compound = "C=C(C)C1CC=C(C=C2C(=O)Nc3ccc(I)cc32)CC1 (stereo not drawn)"
unit_symbol = "%"
observed_value = 12.0

[[record]]
compound = "CCc1cc(CC)c(C=C2C(=O)Nc3ccc(S(=O)(=O)N4CCOCC4)cc32)[nH]1"
unit_symbol = "%"
observed_value = 8.9

[[record]]
compound = "Cc1ccc(C=C2C(=O)Nc3ccc(CCCl)cc32)o1"
unit_symbol = "%"
observed_value = 6.1


Give Fik Kinase %Inhibition for each of the items listed below.
1. Cc1ccc2occ(C=C3C(=O)Nc4c(Br)cc(Br)cc43)c(=O)c2c1
2. COc1c(O)ccc(C=C2C(=O)Nc3ccc(S(=O)(=O)N4CCOCC4)cc32)c1[N+](=O)[O-]
3. CCOc1ccccc1C=C1C(=O)Nc2ccc(I)cc21
4. Cc1c(Br)ccc2c1C(=Cc1coc3ccc([N+](=O)[O-])cc3c1=O)C(=O)N2

a:
1. -5.5
2. 4.1
3. 5.0
4. 70.4

====

biological target: FLK-1 receptor (Mus musculus, UniProt P35918); construct: expressed in transfected cells; host or cells: NIH3T3 C7#3; assay: FLK-1 ELISA (kinase activity of the FLK-1 receptor in FLK-1/NIH3T3 cells, VEGF stimulated); type: cell-based
Sequence (P35918 20-1345): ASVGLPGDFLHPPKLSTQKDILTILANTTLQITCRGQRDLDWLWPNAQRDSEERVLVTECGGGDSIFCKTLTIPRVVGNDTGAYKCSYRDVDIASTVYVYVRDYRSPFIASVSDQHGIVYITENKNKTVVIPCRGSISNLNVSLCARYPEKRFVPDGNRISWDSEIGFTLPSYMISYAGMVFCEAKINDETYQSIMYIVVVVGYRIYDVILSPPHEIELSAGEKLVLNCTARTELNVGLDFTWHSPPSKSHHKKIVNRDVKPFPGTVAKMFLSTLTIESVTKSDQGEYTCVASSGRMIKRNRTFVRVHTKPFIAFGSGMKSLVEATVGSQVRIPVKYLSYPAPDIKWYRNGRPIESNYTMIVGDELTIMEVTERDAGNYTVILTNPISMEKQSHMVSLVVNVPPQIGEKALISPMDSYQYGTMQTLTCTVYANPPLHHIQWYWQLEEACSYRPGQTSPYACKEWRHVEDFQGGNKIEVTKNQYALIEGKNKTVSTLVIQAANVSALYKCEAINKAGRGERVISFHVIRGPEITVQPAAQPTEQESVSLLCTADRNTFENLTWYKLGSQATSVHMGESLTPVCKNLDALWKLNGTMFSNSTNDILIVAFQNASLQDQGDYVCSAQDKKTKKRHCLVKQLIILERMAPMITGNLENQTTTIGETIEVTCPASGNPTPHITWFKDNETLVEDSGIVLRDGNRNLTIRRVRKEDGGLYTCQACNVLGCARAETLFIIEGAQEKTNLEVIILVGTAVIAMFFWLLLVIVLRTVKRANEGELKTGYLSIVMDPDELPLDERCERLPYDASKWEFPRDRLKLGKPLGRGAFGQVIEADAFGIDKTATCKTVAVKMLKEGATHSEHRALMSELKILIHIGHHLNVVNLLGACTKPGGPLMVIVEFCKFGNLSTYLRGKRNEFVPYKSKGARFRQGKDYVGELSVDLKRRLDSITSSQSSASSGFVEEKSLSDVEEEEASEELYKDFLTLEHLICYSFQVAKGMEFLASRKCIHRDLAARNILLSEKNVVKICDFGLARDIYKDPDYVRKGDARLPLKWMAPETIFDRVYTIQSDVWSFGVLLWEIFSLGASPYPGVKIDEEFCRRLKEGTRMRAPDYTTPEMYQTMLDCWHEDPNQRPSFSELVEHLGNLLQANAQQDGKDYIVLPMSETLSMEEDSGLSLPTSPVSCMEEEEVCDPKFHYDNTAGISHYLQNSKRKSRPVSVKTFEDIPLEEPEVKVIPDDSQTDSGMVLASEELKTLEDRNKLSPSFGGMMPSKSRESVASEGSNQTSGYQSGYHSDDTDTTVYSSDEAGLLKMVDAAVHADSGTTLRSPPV
quantity: Fik Kinase %Inhibition (%)
Answers are plain numbers, in %.

Give Fik Kinase %Inhibition for each of the items listed below.
1. O=C1Nc2ccc(CCCl)cc2C1=Cc1ccc([N+](=O)[O-])cc1 [10734/G06]
2. CNS(=O)(=O)c1ccc2c(c1)C(=Cc1ccc(C)s1)C(=O)N2 [10717/D07]
3. COc1cc(O)ccc1C=C1C(=O)Nc2ccc(S(=O)(=O)Nc3ccc(C(F)(F)F)cc3)cc21 [10720/E03]
4. Cc1c(Br)ccc2c1C(=Cc1ccc(Br)cc1)C(=O)N2 [10717/C08]

a:
1. 16.5
2. -8.4
3. 34.3
4. 7.0

Give Fik Kinase %Inhibition for each of the items listed below.
1. Cc1cc(C=C2C(=O)Nc3ccc(S(=O)(=O)Nc4ccc(C(F)(F)F)cc4)cc32)cc(C)c1OCc1ccccc1 [10733/E07]
2. Cc1cc(C=C2C(=O)Nc3ccc(S(=O)(=O)Nc4ccc(C(F)(F)F)cc4)cc32)oc1C [10730/E11]
3. COc1cccc(C=C2C(=O)Nc3ccc(CCCl)cc32)c1O [10723/G03]
4. CCc1ccc(C=C2C(=O)Nc3ccc(S(=O)(=O)Nc4ccc(C(F)(F)F)cc4)cc32)s1 [10726/E10]

a:
1: 13.2; 2: 29.1; 3: 4.3; 4: 16.5

Give Fik Kinase %Inhibition for each of the items listed below.
1. Cn1cc(Cl)c(C=C2C(=O)Nc3ccc(S(=O)(=O)N4CCOCC4)cc32)n1 [10721/F03]
2. O=C1Nc2c(Br)cc(Br)cc2C1=Cc1cc([N+](=O)[O-])ccc1O [10733/A10]

a:
1. 9.1
2. -9.3

Give Fik Kinase %Inhibition for each of the items listed below.
1. COc1ccc(C=C2C(=O)Nc3ccc(S(=O)(=O)N4CCOCC4)cc32)c(OC)c1OC [10730/F02]
2. O=C1Nc2ccc(I)cc2C1=Cc1ccc(Br)s1 [10734/B11]

a:
18.4
12.6

Cited source: patent EP1247803A2
